Target or test system: Leucine aminopeptidase (Plasmodium falciparum (isolate 3D7)) (UniProt Q8IL11)
Sequence (Q8IL11 whole entry, looked up): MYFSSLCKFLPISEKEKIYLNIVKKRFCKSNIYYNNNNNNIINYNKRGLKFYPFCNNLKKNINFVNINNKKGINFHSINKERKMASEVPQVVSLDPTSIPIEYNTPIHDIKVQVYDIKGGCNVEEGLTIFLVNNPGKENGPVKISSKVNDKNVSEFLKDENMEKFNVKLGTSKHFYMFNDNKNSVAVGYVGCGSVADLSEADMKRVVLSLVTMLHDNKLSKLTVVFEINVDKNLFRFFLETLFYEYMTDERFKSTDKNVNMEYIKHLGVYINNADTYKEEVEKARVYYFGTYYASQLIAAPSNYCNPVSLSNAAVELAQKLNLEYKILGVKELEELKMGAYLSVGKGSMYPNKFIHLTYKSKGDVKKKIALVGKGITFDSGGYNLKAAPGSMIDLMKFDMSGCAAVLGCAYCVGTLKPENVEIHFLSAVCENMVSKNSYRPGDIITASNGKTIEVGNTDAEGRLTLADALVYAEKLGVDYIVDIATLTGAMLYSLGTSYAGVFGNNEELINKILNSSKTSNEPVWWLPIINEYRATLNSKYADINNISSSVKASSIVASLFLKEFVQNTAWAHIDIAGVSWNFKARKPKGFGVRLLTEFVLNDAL
Experiment summary: P. falciparum M17LAP inhibitors, primary screen, biochemical, fluorogenic H-Leu-NHMec substrate, 1536-well (AID 1619);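 further: plate controls were full reaction with DMSO carrier for no effect and no enzyme background for full effect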
Test conditions: recombinant M17LAP, H-Leu-NHMec fluorogenic kinetic assay; at 30 µM; stronger effect = higher value
The whole screen tested about 220,000 compounds, of which about 830 (0.38%) were called active. Only a sample is shown. Potency and affinity values are given separately.
Quantity kind: inhibition (%)
Your answer should be a plain number; it is taken to be in %.

// inhibition (Leucine aminopeptidase (Plasmodium falciparum (isolate 3D7)) (UniProt Q8IL11)) for `CCn1c(N2CCN(CC(=O)c3c(C)n(C)c4ccccc34)CC2)nc2c1c(=O)[nH]c(=O)n2C` = 16.3

// inhibition (Leucine aminopeptidase (Plasmodium falciparum (isolate 3D7)) (UniProt Q8IL11)) for N#CC1=C(N)Oc2n[nH]c(-c3ccncc3)c2C1c1ccsc1 (stereo not given) = 27.9

// inhibition (Leucine aminopeptidase (Plasmodium falciparum (isolate 3D7)) (UniProt Q8IL11)) for `Cc1ccc(C(=O)Nc2cc(=O)n(C)c(=O)n2C)cc1C` = 1.37

// inhibition (Leucine aminopeptidase (Plasmodium falciparum (isolate 3D7)) (UniProt Q8IL11)) for N#CC1=C(N)Oc2n[nH]c(-c3cccs3)c2C1c1cccnc1 (stereo not given) = 24.1

// inhibition (Leucine aminopeptidase (Plasmodium falciparum (isolate 3D7)) (UniProt Q8IL11)) for `O=C(CSc1nnc(CN2CCCCCC2=O)n1-c1ccccn1)NCC(F)(F)F` = -5.65

// inhibition (Leucine aminopeptidase (Plasmodium falciparum (isolate 3D7)) (UniProt Q8IL11)) for `Cn1c(CNC(=O)c2ccco2)nnc1SCC(=O)Nc1cccc(Br)c1` = 7.38

// inhibition (Leucine aminopeptidase (Plasmodium falciparum (isolate 3D7)) (UniProt Q8IL11)) for `COc1cccc(NC(=O)CSc2ncnc3c2oc2ccccc23)c1` = 2.46

// inhibition (Leucine aminopeptidase (Plasmodium falciparum (isolate 3D7)) (UniProt Q8IL11)) for `C=CCn1c(CNC(=O)c2ccco2)nnc1SCC(=O)Nc1cccc(F)c1` = 14.5

// inhibition (Leucine aminopeptidase (Plasmodium falciparum (isolate 3D7)) (UniProt Q8IL11)) for Cc1cc(-c2[nH]nc3c2C(c2ccsc2)C(C#N)=C(N)O3)c(C)s1 (stereo not given) = 45.6

// inhibition (Leucine aminopeptidase (Plasmodium falciparum (isolate 3D7)) (UniProt Q8IL11)) for `COCCn1c(SCC(=O)Nc2cccc(OC)c2)nc2c(oc3ccccc32)c1=O` = -1.96
